Biological target: T1, human CD19 (human, UniProt P15391 20-291)
T1 construct: also called B-Lymphocyte Surface Antigen B4; recombinant CD19 extracellular domain
T1 sequence (looked up): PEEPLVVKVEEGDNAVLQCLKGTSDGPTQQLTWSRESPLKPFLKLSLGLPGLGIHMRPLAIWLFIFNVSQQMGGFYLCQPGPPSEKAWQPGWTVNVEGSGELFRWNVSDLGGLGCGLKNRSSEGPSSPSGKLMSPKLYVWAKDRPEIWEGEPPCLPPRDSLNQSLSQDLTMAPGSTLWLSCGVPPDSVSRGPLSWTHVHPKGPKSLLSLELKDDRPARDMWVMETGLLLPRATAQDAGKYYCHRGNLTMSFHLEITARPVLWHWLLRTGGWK
Assay: ELISA on recombinant CD19 extracellular domain and/or cell-binding assay
measure name: binding result

- SEQ ID NO 14 (antibody, V domains shown, Heavy chain-only antibody (UniAb, human IgG, no light chain, no CH1)) VH: EVQLVESGGGLVQPGGSLRLSCAASGFTFSNYWMSWVRQAPGKGQEWVATINQDGSDKDYVDSVKGRFTISRDNAKKSLYLQMNSLRAEDTAVYYCASGVYSFDYRGQGTLVTVSS: binds
- SEQ ID NO 16 (antibody, V domains shown, Heavy chain-only antibody (UniAb, human IgG, no light chain, no CH1)) VH: EVQLVESGGGMVQPGGSLRLSCAASGFTFSSYWMSWVRQAPGKGLEWVATINQDGSEKDYVDSVKGRFTISRDNAKKSLLLQMNSLRAEDTAVYYCASGVYSFDYRGQGTLVTVSS: binds
- SEQ ID NO 21 (antibody, V domains shown, Heavy chain-only antibody (UniAb, human IgG, no light chain, no CH1)) VH: EVQLVESGGGLVQPGGSLRLSCVASGFTFSSYWMSWVRQAPGKGLEWVANIKQDGSEKEYVDSVKGRFTISRDNAKNSLYLQMNSLRAEDTAVYYCASGVYSFDYRGQGTLVTVSS: binds
- SEQ ID NO 19 (antibody, V domains shown, Heavy chain-only antibody (UniAb, human IgG, no light chain, no CH1)) VH: EVQLVESGGGLVQPGGSLRLSCVASGFTFSDYWMSWVRQAPGKGLEWVANINKAGSEEFYVDSVKGRFTISRDNAKNSLYLQMDSLRAEDTAVYYCASGVYSFDYRGQGTLVTVSS: binds
